All values here come from ChEMBL document CHEMBL3272133.

- assay details: Acute toxicity in po dosed female rat
- Assay type: organism-based
- condition info: in vivo
readout name: LD50 (mg/kg)
One number for each entry, in mg/kg.

Query :: Form field: reported LD50 of Clc1ccc(CCC(Cn2ccnc2)Sc2c(Cl)cccc2Cl)cc1.O=[N+]([O-])O (stereo unspecified) [BUTOCONAZOLE NITRATE]
Result :: 1720

----------
- assay details: Acute toxicity in ip dosed mouse
- Format: organism-based
- condition info: in vivo
readout name: LD50

Query :: Which LD50 reading was recorded for the molecule Clc1ccc(CCC(Cn2ccnc2)Sc2c(Cl)cccc2Cl)cc1.O=[N+]([O-])O (stereo unspecified) [BUTOCONAZOLE NITRATE] ?
Result :: > 1600 mg/kg
